# Test system: 186277-243-T-J2-PDC complex spheroid growth, % test/control
# experiment.notes: Anticancer human tumor 186277-243-T-J2-PDC patient-derived colon adenocarcinoma cell line growth inhibition [Asc]
# study.conditions: curve of first compound; second compound 1 µM
measure.name: pIC50
Formally, pIC50 is defined as -log10 of the concentration c, with c in mol/L.

O=C(c1cc(Cc2n[nH]c(=O)c3ccccc23)ccc1F)N1CCN(C(=O)C2CC2)CC1 + Cc1c(S(C)(=O)=O)c(-c2cc(F)cc(N3CCN(c4ccc(NS(=O)(=O)c5ccc(NC(CCN6CCC(C(=O)OCCCP(=O)(O)O)CC6)CSc6ccccc6)c(S(=O)(=O)C(F)(F)F)c5)cc4)CC3)c2)c(-c2ccc(Cl)cc2)n1C(C)C
5.10

Now for the compound whose pIC50 we want.
Given C#Cc1c(F)ccc2cc(O)cc(-c3ncc4c(N5CC6CCC(C5)N6)nc(OCC56CCCN5CC(F)C6)nc4c3F)c12 (stereo not drawn) + Cc1c(S(C)(=O)=O)c(-c2cc(F)cc(N3CCN(c4ccc(NS(=O)(=O)c5ccc(NC(CCN6CCC(C(=O)OCCCP(=O)(O)O)CC6)CSc6ccccc6)c(S(=O)(=O)C(F)(F)F)c5)cc4)CC3)c2)c(-c2ccc(Cl)cc2)n1C(C)C , state its recorded pIC50.
6.94

* * *

# Test system: 186277-243-T-J2-PDC complex spheroid growth, % test/control
# experiment.notes: Anticancer human tumor 186277-243-T-J2-PDC cell line growth inhibition [Asc];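 note: spheroids exposed to agents for 7 days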
# study.conditions: curve of first compound; second compound 1 µM
As shown below, each of these compounds has a reported IC50 value.
Numeric answer only, unit µM assumed.

The cases that follow already have their IC50 on record.
NC(=O)C(=Cn1cnc(-c2cc(C(F)(F)F)cc(C(F)(F)F)c2)n1)c1cncnc1 + CNC(C)C(=O)NC1CN(S(=O)(=O)c2cccc(S(=O)(=O)N3CCC4CCC(C(=O)NC(c5ccccc5)c5ccccc5)N4C(=O)C(NC(=O)C(C)NC)C3)c2)CCC2CCC(C(=O)NC(c3ccccc3)c3ccccc3)N2C1=O
0.178
C=C(F)C(=O)N1CCN(c2nc(OCC3CCCN3C)nc3c2CCN(c2cccc4cccc(Cl)c24)C3)CC1CC#N (stereo unspecified) + CNC(C)C(=O)NC1CN(S(=O)(=O)c2cccc(S(=O)(=O)N3CCC4CCC(C(=O)NC(c5ccccc5)c5ccccc5)N4C(=O)C(NC(=O)C(C)NC)C3)c2)CCC2CCC(C(=O)NC(c3ccccc3)c3ccccc3)N2C1=O
6.26
O=C(c1ccc(F)c(F)c1Nc1ccc(I)cc1F)N1CC(O)([C@@H]2CCCCN2)C1 + CNC(C)C(=O)NC1CN(S(=O)(=O)c2cccc(S(=O)(=O)N3CCC4CCC(C(=O)NC(c5ccccc5)c5ccccc5)N4C(=O)C(NC(=O)C(C)NC)C3)c2)CCC2CCC(C(=O)NC(c3ccccc3)c3ccccc3)N2C1=O
0.0854

Now for the compound whose IC50 we want.
Given C=C(F)C(=O)N1CCN(c2nc(OCC3CCCN3C)nc3c2CCN(c2cccc4cccc(Cl)c24)C3)CC1CC#N (stereo unspecified) + Cc1c(S(C)(=O)=O)c(-c2cc(F)cc(N3CCN(c4ccc(NS(=O)(=O)c5ccc(NC(CCN6CCC(C(=O)OCCCP(=O)(O)O)CC6)CSc6ccccc6)c(S(=O)(=O)C(F)(F)F)c5)cc4)CC3)c2)c(-c2ccc(Cl)cc2)n1C(C)C , state its recorded IC50.
2.59
